# Organism: Rattus norvegicus
# PROTOCOL NOTES: Open TG-GATES - Regimen: Daily Repeat
# Assay type: toxicity, organism-based, Sprague-Dawley
# Design: regimen Daily Repeat, gender Male, age 6 weeks
# REPORTED CONDITIONS: in vivo, po, 0 mg/kg, […], tissue Plasma, route gavage, dose level Control, time 28 day
For each record, write down the corresponding Ca.
Response body: numeric value in mg/dL, unit text excluded.

Recorded Ca (compound `NC(N)=Nc1nc(CSCCC(N)=NS(N)(=O)=O)cs1` ): 10.2

Recorded Ca (compound CCOC(=O)CCC(=O)O[C@H]1[C@H](O[C@@H]2[C@@H](C)[C@H](O[C@H]3C[C@@](C)(OC)[C@@H](O)[C@H](C)O3)[C@@H](C)C(=O)O[C@H](CC)[C@@](C)(O)[C@H](O)[C@@H](C)C(=O)[C@H](C)C[C@@]2(C)O)O[C@H](C)C[C@@H]1N(C)C [ERYTHROMYCIN ETHYLSUCCINATE] ): 10.4

Recorded Ca (compound COc1ccc2[nH]c([S+]([O-])Cc3ncc(C)c(OC)c3C)nc2c1 (stereo unspecified) ): 10.7

Recorded Ca (compound CCCNC(=O)NS(=O)(=O)c1ccc(Cl)cc1 [CHLORPROPAMIDE] ): 10.6

Recorded Ca (compound `CC1=C(/C=C/C(C)=C/C=C/C(C)=C/CO)C(C)(C)CCC1` ): 10.6

Recorded Ca (compound `CN(C)CCN(Cc1cccs1)c1ccccn1` ): 10.2

###

# Organism: Rattus norvegicus
# PROTOCOL NOTES: Open TG-GATES - Regimen: Single
# Assay type: toxicity, organism-based, Sprague-Dawley
# Set-up: regimen Single, gender Male, age 6 weeks
# REPORTED CONDITIONS: in vivo, po, 0 mg/kg, 3 h, tissue Blood, route gavage, dose level Control
For each record, write down the corresponding Plat.
Response body: numeric value in x10_4/uL, unit text excluded.

Recorded Plat (molecule CN(C)CCCN1c2ccccc2CCc2ccccc21 [IMIPRAMINE] ): 112.7

Recorded Plat (molecule COc1cc2c(c(OC)c1OC)-c1ccc(OC)c(=O)cc1[C@@H](NC(C)=O)CC2 [COLCHICINE] ): 118.4

Recorded Plat (molecule COc1ccc2[nH]c([S+]([O-])Cc3ncc(C)c(OC)c3C)nc2c1 (stereo not drawn) [OMEPRAZOLE] ): 122.7

Recorded Plat (molecule O=C(CCCN1CCC(O)(c2ccc(Cl)cc2)CC1)c1ccc(F)cc1 [HALOPERIDOL] ): 94.5

Recorded Plat (molecule COC1=CC(=O)C[C@@H](C)[C@]12Oc1c(Cl)c(OC)cc(OC)c1C2=O [GRISEOFULVIN] ): 119.6

Recorded Plat (molecule CC1=C(/C=C/C(C)=C/C=C/C(C)=C/CO)C(C)(C)CCC1 [RETINOL] ): 108.5

Recorded Plat (molecule Cc1ccc(C)c(OCCCC(C)(C)C(=O)O)c1 [GEMFIBROZIL] ): 124.4

Recorded Plat (molecule CCCNC(=O)NS(=O)(=O)c1ccc(Cl)cc1 [CHLORPROPAMIDE] ): 118.9

###

# Organism: Rattus norvegicus
# PROTOCOL NOTES: Open TG-GATES - Regimen: Daily Repeat
# Type: toxicity, organism-based, Sprague-Dawley
# Set-up: regimen Daily Repeat, gender Male, age 6 weeks
# REPORTED CONDITIONS: in vivo, po, 100 mg/kg, […], tissue Plasma, route gavage, dose level Low, time 28 day
QUANTITY: TP (g/dL)
Response body: numeric value in g/dL, unit text excluded.

Recorded TP (compound CCOC(=O)CCC(=O)O[C@H]1[C@H](O[C@@H]2[C@@H](C)[C@H](O[C@H]3C[C@@](C)(OC)[C@@H](O)[C@H](C)O3)[C@@H](C)C(=O)O[C@H](CC)[C@@](C)(O)[C@H](O)[C@@H](C)C(=O)[C@H](C)C[C@@]2(C)O)O[C@H](C)C[C@@H]1N(C)C [ERYTHROMYCIN ETHYLSUCCINATE] ): 5.9

Recorded TP (compound COc1ccc2[nH]c([S+]([O-])Cc3ncc(C)c(OC)c3C)nc2c1 (centres undefined) ): 6.2

Recorded TP (compound CCOc1ccc(NC(=O)CC(C)O)cc1 (centres undefined) ): 6.4

Recorded TP (compound `NC(N)=Nc1nc(CSCCC(N)=NS(N)(=O)=O)cs1` ): 5.9

###

For each record, write down the corresponding MCV.
# Species: Rattus norvegicus
# PROTOCOL NOTES: Open TG-GATES - Regimen: Daily Repeat
# Assay type: toxicity, organism-based, Sprague-Dawley
# Design: regimen Daily Repeat, gender Male, age 6 weeks
# REPORTED CONDITIONS: in vivo, po, 0 mg/kg, […], tissue Blood, route gavage, dose level Control, time 7 day
Response body: numeric value in fL, unit text excluded.

Recorded MCV (molecule CCCNC(=O)NS(=O)(=O)c1ccc(Cl)cc1 [CHLORPROPAMIDE] ): 64.7

Recorded MCV (molecule `CN(C)CCN(Cc1cccs1)c1ccccn1` ): 61.8

Recorded MCV (molecule `CC1=C(/C=C/C(C)=C/C=C/C(C)=C/CO)C(C)(C)CCC1` ): 59.7

Recorded MCV (molecule `CN1C(=O)CN=C(c2ccccc2)c2cc(Cl)ccc21` ): 65.6

###

For each record, write down the corresponding Neu.
# Species on record: Rattus norvegicus
# PROTOCOL NOTES: Open TG-GATES - Regimen: Single
# Assay type: toxicity, organism-based, Sprague-Dawley
# Design: regimen Single, gender Male, age 6 weeks
# REPORTED CONDITIONS: in vivo, po, 0 mg/kg, 3 h, tissue Blood, route gavage, dose level Control
Response body: numeric value in %, unit text excluded.

Recorded Neu (compound `NC(N)=Nc1nc(CSCCC(N)=NS(N)(=O)=O)cs1` ): 26.8

Recorded Neu (compound COc1ccc2[nH]c([S+]([O-])Cc3ncc(C)c(OC)c3C)nc2c1 (stereo not drawn) ): 18.6

Recorded Neu (compound CCCNC(=O)NS(=O)(=O)c1ccc(Cl)cc1 [CHLORPROPAMIDE] ): 17.8

Recorded Neu (compound CCOc1ccc(NC(=O)CC(C)O)cc1 (stereo not drawn) ): 17.2

Recorded Neu (compound `CN1C(=O)CN=C(c2ccccc2)c2cc(Cl)ccc21` ): 19.6

Recorded Neu (compound `CC/C(=C(\c1ccccc1)c1ccc(OCCN(C)C)cc1)c1ccccc1` ): 19.2

Recorded Neu (compound `CN(C)CCCN1c2ccccc2CCc2ccc(Cl)cc21` ): 16.8

Recorded Neu (compound `COc1cc2c(c(OC)c1OC)-c1ccc(OC)c(=O)cc1[C@@H](NC(C)=O)CC2` ): 10.4

###

# Species: Rattus norvegicus
# PROTOCOL NOTES: Open TG-GATES - Regimen: Daily Repeat
# Assay type: toxicity, organism-based, Sprague-Dawley
# Set-up: regimen Daily Repeat, gender Male, age 6 weeks
# REPORTED CONDITIONS: in vivo, po, 0 mg/kg, […], tissue Plasma, route gavage, dose level Control, time 14 day
QUANTITY: K (meq/L)
Response body: numeric value in meq/L, unit text excluded.

Recorded K (compound CCOC(=O)CCC(=O)O[C@H]1[C@H](O[C@@H]2[C@@H](C)[C@H](O[C@H]3C[C@@](C)(OC)[C@@H](O)[C@H](C)O3)[C@@H](C)C(=O)O[C@H](CC)[C@@](C)(O)[C@H](O)[C@@H](C)C(=O)[C@H](C)C[C@@]2(C)O)O[C@H](C)C[C@@H]1N(C)C [ERYTHROMYCIN ETHYLSUCCINATE] ): 4.5

Recorded K (compound CCOc1ccc(NC(=O)CC(C)O)cc1 (stereo not drawn) [BUCETIN] ): 3.9

Recorded K (compound `CN(C)CCN(Cc1cccs1)c1ccccn1` ): 4.1

###

For each record, write down the corresponding BUN.
# Organism: Rattus norvegicus
# PROTOCOL NOTES: Open TG-GATES - Regimen: Single
# Type: toxicity, organism-based, Sprague-Dawley
# Parameters: regimen Single, gender Male, age 6 weeks
# REPORTED CONDITIONS: in vivo, po, 0 mg/kg, 3 h, tissue Plasma, route gavage, dose level Control
Response body: numeric value in mg/dL, unit text excluded.

Recorded BUN (compound `NNC(=O)c1ccncc1` ): 10

Recorded BUN (compound `CN1C(=O)CN=C(c2ccccc2)c2cc(Cl)ccc21` ): 14.2

Recorded BUN (compound `COC1=CC(=O)C[C@@H](C)[C@]12Oc1c(Cl)c(OC)cc(OC)c1C2=O` ): 10.8

###

# Organism: Rattus norvegicus
# PROTOCOL NOTES: Open TG-GATES - Regimen: Single
# Assay type: toxicity, organism-based, Sprague-Dawley
# Design: regimen Single, gender Male, age 6 weeks
# REPORTED CONDITIONS: in vivo, po, 0 mg/kg, 9 h, tissue Plasma, route gavage, dose level Control
For each record, write down the corresponding DBIL.
Response body: numeric value in mg/dL, unit text excluded.

Recorded DBIL (molecule COc1ccc2[nH]c([S+]([O-])Cc3ncc(C)c(OC)c3C)nc2c1 (stereo not drawn) [OMEPRAZOLE] ): 0.06

Recorded DBIL (molecule CN(C)CCCN1c2ccccc2CCc2ccccc21 [IMIPRAMINE] ): 0.008

Recorded DBIL (molecule `CN(C)CCN(Cc1cccs1)c1ccccn1` ): 0

Recorded DBIL (molecule CC(C)OC(=O)C(C)(C)Oc1ccc(C(=O)c2ccc(Cl)cc2)cc1 [FENOFIBRATE] ): 0.008

Recorded DBIL (molecule CCOC(=O)CCC(=O)O[C@H]1[C@H](O[C@@H]2[C@@H](C)[C@H](O[C@H]3C[C@@](C)(OC)[C@@H](O)[C@H](C)O3)[C@@H](C)C(=O)O[C@H](CC)[C@@](C)(O)[C@H](O)[C@@H](C)C(=O)[C@H](C)C[C@@]2(C)O)O[C@H](C)C[C@@H]1N(C)C [ERYTHROMYCIN ETHYLSUCCINATE] ): 0

Recorded DBIL (molecule C[C@@H]1C[C@H]2[C@@H]3CCC4=CC(=O)C=C[C@]4(C)[C@@]3(F)[C@@H](O)C[C@]2(C)[C@@]1(O)C(=O)CO [DEXAMETHASONE] ): 0.01

Recorded DBIL (molecule COc1cc2c(c(OC)c1OC)-c1ccc(OC)c(=O)cc1[C@@H](NC(C)=O)CC2 [COLCHICINE] ): 0.044

Recorded DBIL (molecule NC(N)=Nc1nc(CSCCC(N)=NS(N)(=O)=O)cs1 [FAMOTIDINE] ): 0.056
